Parameter pIC50: see the listing below.
Tested on: MCF-7
Assay summary: cells
Assay type: cell-based
Applied conditions: Homo sapiens, MCF7, read-out: IC50 against cell proliferation, MCF-7
Value format note: pIC50 is -log10 of concentration (mol/L); just state the number.

Sample records with pIC50:
# Molecule, pIC50
records = [
    ("S=P1(c2ccccc2)NCCO1 (centres unmarked) [Compound S2]", 3.34),
    ("O=[N+]([O-])c1ccc2c(c1)NP(=S)(c1ccccc1)O2 (centres unmarked) [Compound S11]", 4.64),
    ("S=P1(c2ccccc2)NCNCN1 [Compound S9]", 3.34),
]

(Q) Note down pIC50 recorded for S=P1(c2ccccc2)NCCCCCCO1 (centres unmarked) [Compound S6]
(A) 3.33

(Q) Quickly give me recorded pIC50 for S=P1(c2ccccc2)Oc2ccc3cccc4c5cccc6ccc(c(c2c34)c65)O1 [Compound S15]
(A) 3.58

---

Measured pIC50, listed per entry for reference.
System: HepG2 cell lines (liver tumor cell)
Applied conditions: read-out: IC50 HepG2
pIC50: −log10 of the molar value.

Past entries and their recorded results:
# Molecule, pIC50
records = [
    ("S=P1(c2ccccc2)OCCCCO1 [Compound S8]", "< 3.40"),
    ("Cc1ccc2c(c1)NP(=S)(c1ccccc1)O2 (stereo not drawn) [Compound S14]", "< 3.40"),
]

// moving on: another record for pIC50
(Q) Give the reported value of pIC50 for this record: N#Cc1ccc2c(c1)NP(=S)(c1ccccc1)O2 (stereo not drawn) [Compound S16]
(A) < 3.40

---

Tested on: MCF-7
Assay summary: cells
Type: cell-based
Applied conditions: Homo sapiens, MCF7, read-out: IC50 against cell proliferation, MCF-7
Consider the following molecules and their measured pIC50 readings.
Answer as the number alone; pIC50 is minus log10 of concentration in mol/L.

// solved cases for pIC50 follow
# Molecule, pIC50
measured = [
    ("S=P1(c2ccccc2)NCCCCN1", 3.33),
    ("S=P1(c2ccccc2)SCCS1", 3.34),
]

We next turn to a different molecule, shown below.
(Q) # assay system MCF-7: give pIC50 of S=P1(c2ccccc2)NCCCCO1 (stereo not shown)
(A) 3.33

---

Tested on: MCF-7
Assay summary: cells
Format: cell-based
Applied conditions: read-out: IC50 against cell proliferation, MCF-7
Test readout: IC50 (µM)
Field: numeric (µM). Do not append units.

Examples from the recorded data:
# Compound, IC50 (µM)
data = [
    ("S=P1(c2ccccc2)OCCCCO1", 480),
    ("N#Cc1ccc2c(c1)NP(=S)(c1ccccc1)O2 (stereo not drawn)", 28),
]

Now let's try a different one.
(Q) Name the recorded IC50 of the compound listed here: Cc1ccc2c(c1)NP(=S)(c1ccccc1)O2 (stereo not drawn)
(A) 31

---

Listing of entries alongside the reported pIC50.
Test system: MCF-7
Assay summary: cells
Assay type: cell-based
Applied conditions: Homo sapiens, MCF7, read-out: IC50 against cell proliferation, MCF-7
Keep it numeric: pIC50 is minus log10 of the concentration in mol/L.

# Compound, pIC50
data = [
    ("S=P1(c2ccccc2)Oc2ccccc2-c2ccccc2O1", 3.79),
    ("S=P1(c2ccccc2)OCc2ccccc2CO1", 3.34),
    ("S=P1(c2ccccc2)NCCCCCO1 (stereo not shown)", 3.33),
]

(Q) Report measured pIC50; entry is S=P1(c2ccccc2)NCCCO1 (stereo not shown)
(A) 3.33

The values you see were collected from paper PMC11790660.
